- Assay overview: Selectivity index, ratio of CC50 for human MT4 cells to EC50 for reverse transcriptase F227L/V106A double mutant in human MT4 cells infected HIV1 3B
Attribute measured: selectivity ratio
Please respond with just the number, no unit label.

[in] Fill in: selectivity ratio of Cc1cc(C#N)cc(C)c1Oc1nc(Nc2ccc(C#N)cc2)nc(N)c1Br is ___
[out] 156

---

Provide the reported CC50 at 120 h of each item.
- Assay overview: Cytotoxicity against human MT4 cells assessed as cell viability after 5 days by MTT assay
- Format: cell-based

[in] Fill in: CC50 at 120 h of CCOC(=O)c1ccc(CN2CCC(Nc3nc(Oc4c(C)cc(/C=C/C#N)cc4C)c4sccc4n3)CC2)cc1 is ___
[out] ≥ 3.61 µM

[in] Fill in: CC50 at 120 h of Cc1cn([C@H]2C[C@H](N=[N+]=[N-])[C@@H](CO)O2)c(=O)[nH]c1=O is ___
[out] > 7.48 µM

[in] Fill in: CC50 at 120 h of Cc1cc(C#N)cc(C)c1Oc1nc(NC2CCC(NCc3cccc(C(N)=O)c3)CC2)nc2ccsc12 (stereo not drawn) is ___
[out] 9.21 µM
